- tested-on: Peroxisome proliferator-activated receptor alpha (Homo sapiens, UniProt Q07869)
- Sequence (Q07869 whole entry, the tested form may be a part): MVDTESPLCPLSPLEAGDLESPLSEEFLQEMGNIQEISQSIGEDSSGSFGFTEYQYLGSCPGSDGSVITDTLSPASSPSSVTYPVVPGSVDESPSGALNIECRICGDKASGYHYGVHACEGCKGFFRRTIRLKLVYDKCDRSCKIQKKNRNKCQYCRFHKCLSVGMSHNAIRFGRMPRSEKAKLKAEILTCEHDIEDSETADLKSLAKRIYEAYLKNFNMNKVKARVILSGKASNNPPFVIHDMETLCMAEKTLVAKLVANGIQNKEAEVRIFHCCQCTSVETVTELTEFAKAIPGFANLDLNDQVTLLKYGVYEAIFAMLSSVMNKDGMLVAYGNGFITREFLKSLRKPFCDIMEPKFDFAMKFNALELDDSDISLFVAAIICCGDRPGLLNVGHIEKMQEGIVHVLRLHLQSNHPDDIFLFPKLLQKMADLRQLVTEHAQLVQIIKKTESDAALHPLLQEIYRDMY
- assay-remarks: Agonist activity at Gal4-fused human PPARalpha LBD transfected in HEK293T cells assessed as transcriptional activation incubated for 14 to 16 hrs by dual-Glo luciferase assay
// assign Criterion met if EC50 falls strictly below 200 nM, else Criterion not met (ties count as Criterion not met)

Solved cases (5 shown):
1) Cc1ccc(/N=N/c2ccc(OCCc3ccc(OC(C)(C)C(=O)O)cc3)cc2)cc1 = Criterion not met
2) CC(C)(Oc1ccc(CCOc2ccc(/N=N\c3ccccc3)cc2Cl)cc1)C(=O)O = Criterion met
3) Cc1ccc(/N=N\c2ccc(OCCc3ccc(OC(C)(C)C(=O)O)cc3)cc2)cc1 = Criterion not met
4) CC(C)(Oc1ccc(COc2ccc(/N=N\c3ccccc3)cc2)cc1)C(=O)O = Criterion not met
5) Cc1ccc(/N=N\c2ccc(OCCc3ccc(OC(C)(C)C(=O)O)cc3)c(C(F)(F)F)c2)cc1 = Criterion met

Exercise: For Cc1cc(/N=N\c2ccccc2)ccc1OCCc1ccc(OC(C)(C)C(=O)O)cc1 , is the recorded EC50 below the cut-off of 200 nM?
Solution: Criterion not met

Exercise: Identify whether the compound CC(C)(Oc1ccc(CCOc2ccc(/N=N/c3ccccc3)cc2)cc1)C(=O)O records EC50 below 200 nM.
Solution: Criterion not met

Exercise: For CC(C)c1ccc(/N=N/c2ccc(OCCc3ccc(OC(C)(C)C(=O)O)cc3)cc2)cc1 , is the recorded EC50 below the cut-off of 200 nM?
Solution: Criterion not met

Exercise: Determine whether this compound shows EC50 lower than 200 nM (ties excluded): Cc1ccc(/N=N/c2ccc(OCCc3ccc(OC(C)(C)C(=O)O)cc3)c(Cl)c2)cc1
Solution: Criterion met

Exercise: Is the reported EC50 for CC(C)c1ccc(/N=N\c2ccc(OCCc3ccc(OC(C)(C)C(=O)O)cc3)cc2)cc1 strictly below 200 nM?
Solution: Criterion not met

====

- tested-on: Peroxisome proliferator-activated receptor alpha (Homo sapiens)
- assay-remarks: Agonist activity at Gal4-fused human PPARalpha LBD transfected in HEK293T cells assessed as maximal relative activation incubated for 14 to 16 hrs by dual-Glo luciferase assay relative to GW7647
- Format: cell-based
- run-parameters: filed as agonist, time 14-16 hrs
test-readout: max activation (%)
Report the value in % with no unit label.

Lookup result for CC(C)(Oc1ccc(COc2ccc(/N=N/c3ccccc3)cc2)cc1)C(=O)O ; measured max activation: 40

Notebook: Cc1ccc(/N=N/c2ccc(OCCc3ccc(OC(C)(C)C(=O)O)cc3)c(Cl)c2)cc1 , max activation read as 76

Consider CC(C)(Oc1ccc(CCOc2ccc(/N=N/c3ccccc3)cc2C(F)(F)F)cc1)C(=O)O . Its measured max activation is 46

# compound CC(C)(Oc1ccc(CCOc2ccc(/N=N\c3ccccc3)cc2Cl)cc1)C(=O)O ; its max activation = 45

====

Listed here are compounds together with their documented max activation.
- tested-on: Peroxisome proliferator-activated receptor alpha (Homo sapiens) (UniProt Q07869)
- assay-remarks: Agonist activity at Gal4-fused human PPARalpha LBD transfected in HEK293T cells assessed as maximal relative activation incubated for 14 to 16 hrs by dual-Glo luciferase assay relative to GW7647
- Type: cell-based
- run-parameters: time 14-16 hrs
Please state the figure in %; there is no need to write the unit.

The following compounds have reported results that may help.
1) CC(C)(Oc1ccc(COc2ccc(/N=N\c3ccccc3)cc2)cc1)C(=O)O = 28
2) CC(C)c1ccc(/N=N/c2ccc(OCCc3ccc(OC(C)(C)C(=O)O)cc3)cc2)cc1 = 25
3) Cc1ccc(/N=N\c2ccc(OCCc3ccc(OC(C)(C)C(=O)O)cc3)c(C)c2)cc1 = 26
4) CC(C)(Oc1ccc(CCOc2ccc(/N=N\c3ccccc3)cc2)cc1)C(=O)O = 29
5) CC(C)c1ccc(/N=N\c2ccc(OCCc3ccc(OC(C)(C)C(=O)O)cc3)cc2)cc1 = 19

max activation on Peroxisome proliferator-activated receptor alpha (Homo sapiens) (UniProt Q07869) for CC(C)(Oc1ccc(CCOc2ccc(/N=N\c3ccc(Cl)cc3)cc2)cc1)C(=O)O is 24

Response field max activation (Peroxisome proliferator-activated receptor alpha (Homo sapiens) (UniProt Q07869)) for item CC(C)(Oc1ccc(CCOc2ccc(/N=N/c3ccccc3)cc2)cc1)C(=O)O : 31

# lookup: CC(C)(Oc1ccc(CCOc2ccc(/N=N/c3ccc(Cl)cc3)cc2)cc1)C(=O)O on Peroxisome proliferator-activated receptor alpha (Homo sapiens) (UniProt Q07869), max activation = 26

Tested system Peroxisome proliferator-activated receptor alpha (Homo sapiens) (UniProt Q07869); max activation recorded for Cc1cc(/N=N/c2ccccc2)ccc1OCCc1ccc(OC(C)(C)C(=O)O)cc1 was 38

====

Below, each entry is listed with its recorded max activation.
- tested-on: Peroxisome proliferator-activated receptor delta (Homo sapiens)
- assay-remarks: Agonist activity at Gal4-fused human PPARdelta LBD transfected in HEK293T cells assessed as maximal relative activation incubated for 14 to 16 hrs by dual-Glo luciferase assay relative to L165,041
- Format: cell-based
- run-parameters: filed as agonist, time 14-16 hrs
Just the number please, in %, no unit attached.

1) Cc1ccc(/N=N/c2ccc(OCCc3ccc(OC(C)(C)C(=O)O)cc3)c(C(F)(F)F)c2)cc1 = 43
2) Cc1ccc(/N=N\c2ccc(OCCc3ccc(OC(C)(C)C(=O)O)cc3)c(C(F)(F)F)c2)cc1 = 40

Next:
So for Cc1ccc(/N=N/c2ccc(OCCc3ccc(OC(C)(C)C(=O)O)cc3)c(Cl)c2)cc1 , the logged max activation turned out to be 65

====

- tested-on: Peroxisome proliferator-activated receptor gamma (Homo sapiens)
- Sequence (P37231 whole entry, the tested form may be a part): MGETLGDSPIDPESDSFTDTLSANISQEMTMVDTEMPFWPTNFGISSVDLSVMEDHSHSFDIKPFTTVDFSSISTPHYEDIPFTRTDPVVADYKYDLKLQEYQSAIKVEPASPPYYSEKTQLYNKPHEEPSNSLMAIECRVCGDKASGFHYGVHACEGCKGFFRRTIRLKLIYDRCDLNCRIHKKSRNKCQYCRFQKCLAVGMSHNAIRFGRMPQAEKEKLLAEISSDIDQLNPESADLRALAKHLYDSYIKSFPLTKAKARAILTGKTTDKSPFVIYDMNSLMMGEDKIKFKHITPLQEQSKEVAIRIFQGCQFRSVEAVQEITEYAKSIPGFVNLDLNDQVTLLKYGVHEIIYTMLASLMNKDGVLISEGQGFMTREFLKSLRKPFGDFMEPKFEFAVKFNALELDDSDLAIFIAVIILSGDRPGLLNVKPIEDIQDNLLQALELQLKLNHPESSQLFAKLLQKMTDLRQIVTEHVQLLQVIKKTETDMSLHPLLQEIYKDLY
- assay-remarks: Agonist activity at Gal4-fused human PPARgamma LBD transfected in HEK293T cells assessed as transcriptional activation incubated for 14 to 16 hrs by dual-Glo luciferase assay
test-readout: pEC50
Note: pEC50 values are expressed as the negative base-10 logarithm of concentration in M.

Some solved entries appear below for comparison.
1) Cc1ccc(/N=N/c2ccc(OCCc3ccc(OC(C)(C)C(=O)O)cc3)c(C)c2)cc1 = 5.64
2) Cc1ccc(/N=N\c2ccc(OCCc3ccc(OC(C)(C)C(=O)O)cc3)c(C(F)(F)F)c2)cc1 = 5.89
3) CC(C)(Oc1ccc(CCOc2ccc(/N=N/c3ccc(Cl)cc3)cc2)cc1)C(=O)O = 5.49
4) Cc1ccc(/N=N/c2ccc(OCCc3ccc(OC(C)(C)C(=O)O)cc3)c(C(F)(F)F)c2)cc1 = 5.92
5) Cc1ccc(/N=N\c2ccc(OCCc3ccc(OC(C)(C)C(=O)O)cc3)c(C)c2)cc1 = 5.92
6) CC(C)(Oc1ccc(CCOc2ccc(/N=N/c3ccccc3)cc2Cl)cc1)C(=O)O = 6.09

Record CC(C)(Oc1ccc(CCOc2ccc(/N=N\c3ccccc3)cc2Cl)cc1)C(=O)O / Peroxisome proliferator-activated receptor gamma (Homo sapiens), pEC50 recorded as 6.04

Readout pEC50 for CC(C)(Oc1ccc(CCOc2ccc(/N=N/c3ccccc3)cc2)cc1)C(=O)O , test system Peroxisome proliferator-activated receptor gamma (Homo sapiens), was 5.57

====

- tested-on: Peroxisome proliferator-activated receptor delta (Homo sapiens, UniProt Q03181)
- Sequence (Q03181 whole entry): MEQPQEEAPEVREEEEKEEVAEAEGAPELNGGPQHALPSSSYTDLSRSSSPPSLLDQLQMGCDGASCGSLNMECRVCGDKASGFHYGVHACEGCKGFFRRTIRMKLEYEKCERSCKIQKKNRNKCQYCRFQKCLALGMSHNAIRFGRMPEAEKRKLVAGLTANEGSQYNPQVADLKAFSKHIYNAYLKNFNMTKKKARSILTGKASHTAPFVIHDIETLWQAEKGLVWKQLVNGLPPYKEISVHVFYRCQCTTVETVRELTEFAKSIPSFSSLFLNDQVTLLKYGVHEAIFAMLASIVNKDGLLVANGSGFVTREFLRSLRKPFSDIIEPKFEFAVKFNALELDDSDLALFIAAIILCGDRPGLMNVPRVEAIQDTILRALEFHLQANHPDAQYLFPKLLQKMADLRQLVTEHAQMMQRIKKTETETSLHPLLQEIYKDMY
- assay-remarks: Agonist activity at Gal4-fused human PPARdelta LBD transfected in HEK293T cells assessed as transcriptional activation incubated for 14 to 16 hrs by dual-Glo luciferase assay
Measured pEC50 values are reported for all entries that follow.
Note: pEC50 values are expressed as the negative base-10 logarithm of concentration in M.

Known pEC50 results, listed for orientation:
1. CC(C)(Oc1ccc(CCOc2ccc(/N=N\c3ccccc3)cc2C(F)(F)F)cc1)C(=O)O = 6.51
2. CC(C)(Oc1ccc(CCOc2ccc(/N=N/c3ccccc3)cc2)cc1)C(=O)O = 5.66
3. CC(C)(Oc1ccc(CCOc2ccc(/N=N\c3ccccc3)cc2)cc1)C(=O)O = 5.22
4. CC(C)(Oc1ccc(CCOc2ccc(/N=N\c3ccccc3)cc2Cl)cc1)C(=O)O = 6.46

Bench note, Peroxisome proliferator-activated receptor delta (Homo sapiens, UniProt Q03181): CC(C)(Oc1ccc(CCOc2ccc(/N=N/c3ccccc3)cc2C(F)(F)F)cc1)C(=O)O , pEC50 reads 6.85

Tested on Peroxisome proliferator-activated receptor delta (Homo sapiens, UniProt Q03181): Cc1ccc(/N=N/c2ccc(OCCc3ccc(OC(C)(C)C(=O)O)cc3)cc2)cc1 . Observed pEC50: 5.85

Form field, pEC50 with Peroxisome proliferator-activated receptor delta (Homo sapiens, UniProt Q03181), item CC(C)c1ccc(/N=N/c2ccc(OCCc3ccc(OC(C)(C)C(=O)O)cc3)cc2)cc1 : 5.75

Field pEC50 (Peroxisome proliferator-activated receptor delta (Homo sapiens, UniProt Q03181)), entry Cc1ccc(/N=N/c2ccc(OCCc3ccc(OC(C)(C)C(=O)O)cc3)c(Cl)c2)cc1 : 6.92

CC(C)(Oc1ccc(COc2ccc(/N=N/c3ccccc3)cc2)cc1)C(=O)O tested on Peroxisome proliferator-activated receptor delta (Homo sapiens, UniProt Q03181) gave pEC50: 5.55

pEC50 for Peroxisome proliferator-activated receptor delta (Homo sapiens, UniProt Q03181) with input CC(C)(Oc1ccc(CCOc2ccc(/N=N/c3ccc(Cl)cc3)cc2)cc1)C(=O)O equals 5.10

Field pEC50 (system: Peroxisome proliferator-activated receptor delta (Homo sapiens, UniProt Q03181)) for entry Cc1ccc(/N=N/c2ccc(OCCc3ccc(OC(C)(C)C(=O)O)cc3)c(C(F)(F)F)c2)cc1 = 6.95

Cc1ccc(/N=N\c2ccc(OCCc3ccc(OC(C)(C)C(=O)O)cc3)c(Cl)c2)cc1 on Peroxisome proliferator-activated receptor delta (Homo sapiens, UniProt Q03181) gives pEC50 = 6.42

Per the reported Peroxisome proliferator-activated receptor delta (Homo sapiens, UniProt Q03181) data, Cc1cc(/N=N\c2ccccc2)ccc1OCCc1ccc(OC(C)(C)C(=O)O)cc1 has pEC50 of 5.52
